B1: CD2-associated protein, residues 271 to 331; numbered along this chain, Q9Y5K6 (parent)
chain: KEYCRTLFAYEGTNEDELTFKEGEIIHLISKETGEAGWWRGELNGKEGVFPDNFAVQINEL

# Variants of: B1
# PROTOCOL_DETAILS: abundance fitness (aPCA) (normalised: wild type 0, dead -1); higher = more abundant; growth selection in yeast, the domain comes from the species named
# EXPERIMENTAL_CONTEXT: Homo sapiens
Answer each item with its documented abundance fitness.

# input Item KEYCRTLFAYEGNNEDELTFKEGEIIHLISKETGEAGWWRGELNGKEGVFPDNFAVQINEL [T13N] has what recorded abundance fitness?
# output -0.078

# input Item under review: KEYCRTLFAYEGTNEDELTFKEGEIIHLISKETGEAGWWRGELNGKEGSFPDNFAVQINEL [V49S] . Reported abundance fitness?
# output -0.297

# input abundance fitness lookup needed for KEYCRTLFAYEGTNEDELTFKEGEIIHLISKETGEAGWWRGELNGKEGVFPDNFAVQCNEL [I58C] , thanks.
# output -0.112

# input Which abundance fitness reading was recorded for the variant KEYCRTLFAYEGTNEDELTFKEGEIIHLISKETGEAGWWRGELNGKEGVFPDEFAVQINEL [N53E] ?
# output -0.036

# input Bench note: what abundance fitness did KEYCRTLFAYEGTNEDELTFKWGEIIHLISKETGEAGWWRGELNGKEGVFPDNFAVQINEL [E22W] show?
# output -1.13

# input Quick one: abundance fitness for KEYCRTLFAYEGTNEDELTFKEGEIIHLISKETGEAGWWRGELNGKEGVNPDNFAVQINEL [F50N] ?
# output -0.809

# input Entry KEYCRTLFDYEGTNEDELTFKEGEIIHLISKETGEAGWWRGELNGKEGVFPDNFAVQINEL [A9D] has what abundance fitness?
# output -0.011

# input What value of abundance fitness has been reported for the following variant? KEYCRTLFAYEGTNEDELTFKEGEIIHLISKETGEAGWWRGELNGKEGVFPDNFAFQINEL [V56F]
# output -0.456

# input Quick one: abundance fitness of KEYCRTLFAYEGTNEDELTDKEGEIIHLISKETGEAGWWRGELNGKEGVFPDNFAVQINEL [F20D] ?
# output -0.523

# input If you can, please state the reported abundance fitness value of KEYCRTLFAYEGTNEDELTFKEGEIIHLISKETGEAGWWRGELNGKEGVSPDNFAVQINEL [F50S] .
# output -0.818

# input Fill blank: measured abundance fitness of the variant KEYCRTLFAYEGTNEDELTFKEGEIIHLISKEWGEAGWWRGELNGKEGVFPDNFAVQINEL [T33W] is ____.
# output -0.331

# input What abundance fitness value was documented for this variant, KEYCRTLFAYEGTNEDELTFKEGEIIHLISKETGEAGWWRGELNGKEGVFPCNFAVQINEL [D52C] ?
# output 0.009

# input Query: abundance fitness; subject: KEYCRTLFAYEGTNEDELTFKEGEIIHLISKETGEAGWWRGELNGKEGPFPDNFAVQINEL [V49P]
# output -0.713

# input Reported abundance fitness for KEYHRTLFAYEGTNEDELTFKEGEIIHLISKETGEAGWWRGELNGKEGVFPDNFAVQINEL [C4H] : what is it?
# output -1.07

# input GET /values?readout=abundance fitness&item= KEYCRTLFAYEGTMEDELTFKEGEIIHLISKETGEAGWWRGELNGKEGVFPDNFAVQINEL [N14M]
# output -0.172

# input Fill in the blank: the reported abundance fitness of KEYCRTLFAYEGTLEDELTFKEGEIIHLISKETGEAGWWRGELNGKEGVFPDNFAVQINEL [N14L] is ____.
# output -0.4

# input Record request: abundance fitness value, item KEYCRTLFAYEGTNEDELTFKEGEIIHLINKETGEAGWWRGELNGKEGVFPDNFAVQINEL [S30N]
# output -0.152

# input So what does the record say about abundance fitness for KEYCRTLFAYEGTNEDELTFKEGEIIHLISKETGEASWWRGELNGKEGVFPDNFAVQINEL [G37S] ?
# output -0.718

# input GET /values?readout=abundance fitness&item= KEYCRTLFAYEGTNEDELCFKEGEIIHLISKETGEAGWWRGELNGKEGVFPDNFAVQINEL [T19C]
# output -0.287

# input Dear colleague, I am looking for the recorded abundance fitness of the following variant: KEYCRTLFAYEGTNEDELTFKEGEIIHLSSKETGEAGWWRGELNGKEGVFPDNFAVQINEL [I29S]
# output -0.463

# input Query (variant): KEYCRTLFAYFGTNEDELTFKEGEIIHLISKETGEAGWWRGELNGKEGVFPDNFAVQINEL [E11F] ; field requested: abundance fitness
# output -0.151

# input Which value of abundance fitness has been reported for KEYCRTLFAYEGTNEDELTFKEGEICHLISKETGEAGWWRGELNGKEGVFPDNFAVQINEL [I26C] in the records?
# output -0.46

# input Recorded abundance fitness of KEYCRTLFAYEGTNEDELTFKEGEIIHLISKETGEAGWWRGELNGKEGVFPDNFGVQINEL [A55G] , please.
# output -0.322

# input Name the recorded abundance fitness for KEYCRTLFAYEGTNEDELTFKEGEIIHLISKETGEAGWWRGELNGKEGVVPDNFAVQINEL [F50V] .
# output -0.674

# input Entry KEYCRTLFAYEGTNEDELTLKEGEIIHLISKETGEAGWWRGELNGKEGVFPDNFAVQINEL [F20L] : reported abundance fitness = ?
# output -0.709

# input Given KEYCRRLFAYEGTNEDELTFKEGEIIHLISKETGEAGWWRGELNGKEGVFPDNFAVQINEL [T6R] , state its recorded abundance fitness.
# output -0.682

# input What measured abundance fitness goes with KEYCRTLFAYEGTNEDELTFKEGEIIHLISKETGEAGWWRGELNGKEGAFPDNFAVQINEL [V49A] ?
# output -0.319

# input May I ask what abundance fitness has been recorded for KEYCRTLFAYEGTNEDELTYKEGEIIHLISKETGEAGWWRGELNGKEGVFPDNFAVQINEL [F20Y] ?
# output -0.713

# input Query: abundance fitness; subject: KEYCRTLFAYEGTNEDELTFKEGEIIHLISKETGEAGWWRGELCGKEGVFPDNFAVQINEL [N44C]
# output -0.273

# input Looking for the measured abundance fitness of KEYCRTLFAYEGTNEDELTFKEGEIIHLISKETGKAGWWRGELNGKEGVFPDNFAVQINEL [E35K] , can you help?
# output 0.069

# input Fill in the blank: the reported abundance fitness of FEYCRTLFAYEGTNEDELTFKEGEIIHLISKETGEAGWWRGELNGKEGVFPDNFAVQINEL [K1F] is ____.
# output -0.337

# input What value of abundance fitness has been recorded for this entry: KEYCRTMFAYEGTNEDELTFKEGEIIHLISKETGEAGWWRGELNGKEGVFPDNFAVQINEL [L7M]
# output -0.113

# input Entry KEYCRTLFAYEGTNYDELTFKEGEIIHLISKETGEAGWWRGELNGKEGVFPDNFAVQINEL [E15Y] has what abundance fitness?
# output -0.261

# input State the recorded abundance fitness for this entry: KEYCRTVFAYEGTNEDELTFKEGEIIHLISKETGEAGWWRGELNGKEGVFPDNFAVQINEL [L7V]
# output -0.088

# input Consider the variant KEYCRTLFAYEGTNEDELTFKEGEIIHLISKETGEAGWWRGELNGKEGVFPDSFAVQINEL [N53S] and give its measured abundance fitness.
# output 0.012

Each recorded value in this set is attributed to the Human Domainome abundance scans (Beltran et al. 2025).
